system: MDA-MB-435; assay: NCI tumour cell line growth inhibition, 48 h
VALUE_TYPE: TGI

Sample records with TGI:
| COMPOUND | TGI |
| --- | --- |
| CNC(=O)c1sc(-n2cnc3cc(OC)c(OC)cc32)cc1OCc1ccccc1C(F)(F)F | > 25 µM |
| COc1cc(C2c3cc4c(cc3[C@@H](Nc3ccc(F)cc3)C3COC(=O)[C@H]23)OCO4)cc(OC)c1O (stereo partly drawn) | > 100 µM |

Which value of TGI has been reported for COC(=O)C(=O)C(C(=O)C(=O)Nc1cc(C)ccc1C)c1nc2ccccc2[nH]c1=O (stereo not drawn) in the records?
> 100 µM

* * *

test system: EKVX NSCLC; test: NCI tumour cell line growth inhibition, 48 h
// reported TGI per item

| COMPOUND | TGI |
| --- | --- |
| COC(=O)C(=O)C(C(=O)C(=O)Nc1cc(C)ccc1C)c1nc2ccccc2[nH]c1=O (configuration not stated) | > 100 µM |

// lookup TGI for Cc1ccc([N+](=O)[O-])cc1S(=O)(=O)Nc1ccc(C2=NN(S(=O)(=O)c3cc([N+](=O)[O-])ccc3C)C(c3ccccc3O)C2)cc1 (configuration not stated)
> 100 µM

* * *

system: A498 renal; assay: NCI tumour cell line growth inhibition, 48 h
Here the recorded TGI is given for each entry.

| COMPOUND | EXPERIMENTAL_SYSTEM | RESULT |
| --- | --- | --- |
| CC1=C(C(=S)Nc2ccc(Cl)c(C(=O)OC(C)C)c2)SCCO1 | A498 renal | 30.7 µM |

May I ask what TGI has been recorded for "O=C(O)c1ccccc1Sc1ccc(C=C2NC(=S)N(c3ccccc3)C2=O)s1" ?
> 100 µM

Now consider O=C(CC(C(=O)c1ccsc1)c1cccs1)c1cccs1 (stereo not given) and answer again.
> 100 µM

* * *

system: SK-OV-3 ovarian; test: NCI tumour cell line growth inhibition, 48 h
VALUE_TYPE: TGI

The examples below pair each entry with its known result.
| COMPOUND | TGI |
| --- | --- |
| Cc1cc2nc3c(N)nn(CCCN(C)C)c3nc2cc1C | > 100 µM |
| CC(=O)O[C@H]1CSC[C@@H](OC(C)=O)C1[N+](=O)[O-] (stereo not given in full) | > 100 µM |
| COc1ccc(C(CC(=O)c2cccs2)C(=O)c2ccc3c(c2)OCO3)cc1 (stereo not given) | > 100 µM |

Any idea what TGI was measured for "CCOC(=O)/C(C(=O)c1ccc[nH]1)=C1/CCCN1C" ?
> 100 µM

Also need Cc1cc2c3ccccc3n3c2c2c1OC1(C)CCC(C2C1)C3(C)C (stereo not given) , thanks.
> 25 µM

Repeat with COc1cc2c(c3oc4c(O)cccc4c(=O)c13)CC(C(C)(O)CCl)O2 (stereo not given)
17.9 µM

Another compound: CC(=O)N(C(=O)CC(=O)N1N=C(C)C(N=Nc2cccc([N+](=O)[O-])c2)C1=O)c1ccc(Cl)cc1 (stereo not given)
> 10 µM

Now consider "COc1ccccc1NC(=O)c1sc2ncn(CCOc3ccccc3)c(=O)c2c1C" .
> 50 µM

Item: COc1oc(C2C/C(=C/C(C)=C/C(C)=C/C(C)=C/c3ccc([N+](=O)[O-])cc3)CO2)c(C)c(=O)c1C (stereo not given)
> 63.5 µM

O=C(CC1(O)C(=O)Nc2ccc(Cl)cc21)c1ccc(C(=O)NCC2CCC3(CC2)OOC2(CCCCC2)OO3)cc1 (stereo not given) ?
8.01 µM

Also "Nc1nc(N)c(CCCCc2ccc([N+](=O)[O-])cc2)c(N)n1" , if possible.
> 100 µM

Input CC(C)C(Sc1nc(N)nc2nc[nH]c12)C(=O)O (stereo not given)
> 100 µM

And for "CC1=C(C(=S)Nc2ccc(Cl)c(C(=O)OC(C)C)c2)SCCO1" ?
54.8 µM

Similarly, "CCOC(=O)c1c(CN2CCCCC2)nc2ccc(Cl)cc2c1-c1ccccc1" ?
49 µM

Then this compound: "CSC(SC)=C(C#N)C(=O)Nc1ccc(Cl)cc1"
> 100 µM
